Data origin: paper PMC5923142

- test.description: in vitro
- Format: cell-based
- test.parameters: human; HGT-NV cells, 72 h, resazurin; read-out: 50% cytotoxic concentration (CC50)
parameter: CC50

> print(dat)
                           smiles.structure  result.value
1  CCOC(=O)/C=C/[C@H](C[C@@H]1CCNC1=O)NC(=O)[C@@H](CC(=O)[C@@H](NC(=O)c1cc(C)on1)C(C)C)Cc1ccc(F)cc1      > 100 µM

###

- target.or.test.system: GV A105V/I109V mutant protease (Norovirus, UniProt Q80J95, A1099V/I1103V)
- Construct: plasmids expressing norovirus protease from GI.1 (M87661), GII.4 (DQ658413), or GV (DQ285629) norovirus
- test.description: Cell-based FRET assay, GV A105V/I109V protease
- test.parameters: HEK293T cells, GV NS1/2-NS3 FRET substrate
pIC50: −log10 of the molar value.
parameter: pIC50

> print(dat)
                           smiles.structure  parameter  result.value
1  CCOC(=O)/C=C/[C@H](C[C@@H]1CCNC1=O)NC(=O)[C@@H](CC(=O)[C@@H](NC(=O)c1cc(C)on1)C(C)C)Cc1ccc(F)cc1      pIC50          5.64

###

- target.or.test.system: GV WT protease (Norovirus, UniProt Q80J95)
- Sequence (Q80J95 995-1177 limits assumed): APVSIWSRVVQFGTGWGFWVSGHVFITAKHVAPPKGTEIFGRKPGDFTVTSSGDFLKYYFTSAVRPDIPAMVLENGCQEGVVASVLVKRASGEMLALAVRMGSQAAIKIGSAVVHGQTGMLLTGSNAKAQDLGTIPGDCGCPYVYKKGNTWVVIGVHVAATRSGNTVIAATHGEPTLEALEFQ
pIC50: −log10 of the molar value.
parameter: pIC50

> print(dat)
                           smiles.structure  result.value
1  CCOC(=O)/C=C/[C@H](C[C@@H]1CCNC1=O)NC(=O)[C@@H](CC(=O)[C@@H](NC(=O)c1cc(C)on1)C(C)C)Cc1ccc(F)cc1          6.00

###

- target.or.test.system: GI I109V mutant protease (Norovirus, UniProt Q83883, I1209V)
- Construct: plasmids expressing norovirus protease from GI.1 (M87661)
- Sequence (Q83883 1101-1281 I1209V): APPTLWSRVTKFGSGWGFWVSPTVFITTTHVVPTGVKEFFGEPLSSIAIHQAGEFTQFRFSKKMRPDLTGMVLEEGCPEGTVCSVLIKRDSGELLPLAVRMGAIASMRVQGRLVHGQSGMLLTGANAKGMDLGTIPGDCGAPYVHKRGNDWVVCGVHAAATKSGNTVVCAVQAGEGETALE
- test.description: Cell-based FRET assay, GI I109V protease
- test.parameters: HEK293T cells, GI NS1/2-NS3 FRET substrate
pIC50: −log10 of the molar value.
parameter: pIC50

> print(dat)
                           smiles.structure  parameter  result.value
1  CCOC(=O)/C=C/[C@H](C[C@@H]1CCNC1=O)NC(=O)[C@@H](CC(=O)[C@@H](NC(=O)c1cc(C)on1)C(C)C)Cc1ccc(F)cc1      pIC50          5.40
